Catalogue of phenotypically active readings, one per entry.
- System: HepG2-ACTB-RAB5A
- MEASUREMENT PROTOCOL: phenotypically active (imaging signature differs from DMSO and reproducible) at any of 0.3-9 uM (binary (1 = active, 0 = inactive)); higher = active
- RUN CONDITIONS: treatment time: 24 h

# COMPOUND, TEST SYSTEM, phenotypically active
measured = [
    ("CCCC(=O)O[C@]1(C(=O)COC(C)=O)CC[C@H]2[C@@H]3C[C@H](F)C4=CC(=O)C=C[C@]4(C)[C@@]3(F)[C@@H](O)C[C@@]21C [difluprednate]", "HepG2-ACTB-RAB5A", 0),
    ("Cc1ccc(S(=O)(=O)/C=C/C#N)cc1", "HepG2-ACTB-RAB5A", 0),
    ("CN1CC[C@]23c4ccccc4N[C@H]1[C@]21CCN(C)[C@H]3Nc2ccccc21", "HepG2-ACTB-RAB5A", 0),
    ("Cc1cc2c(F)c(Oc3ncnn4cc(OC[C@@H](C)O)c(C)c34)ccc2[nH]1", "HepG2-ACTB-RAB5A", 1),
    ("Nc1ncnc2[nH]nc(Nc3ccc(F)cc3)c12", "HepG2-ACTB-RAB5A", 1),
    ("N#Cc1c(NC(=O)c2cccc3ccccc23)sc2c1CCCC2", "HepG2-ACTB-RAB5A", 1),
]

====

- Test system: WPMY1-ACTB-RAB5A
- MEASUREMENT PROTOCOL: lowest phenotypically active concentration; higher = less potent
- RUN CONDITIONS: treatment time: 24 h
Counter-ions that a name gives are not always drawn.
MEASURED ATTRIBUTE: lowest phenotypically active concentration (µM)

# COMPOUND, COMPARISON SYMBOL, MEASURED VALUE
measured = [
    ("CCC(C)(C)C(=O)O[C@H]1C[C@@H](C)C=C2C=C[C@H](C)[C@H](CC[C@@H]3C[C@@H](O)CC(=O)O3)[C@H]21 [Simvastatin]", "≤", 0.3),
    ("CC(=C/[C@@H](C)C(=O)c1ccc(N(C)C)cc1)/C=C/C(=O)NO [Trichostatin A]", "≤", 0.3),
    ("CCOC(=O)Nc1cc(-c2ccc(C)c(NS(C)(=O)=O)c2)nn2c(C)nnc12 [Bromosporine]", "=", 1),
    ("O=C(O)C[C@H](O)C[C@H](O)/C=C/c1c(C2CC2)nc2ccccc2c1-c1ccc(F)cc1 [Pitavastatin calcium]", "≤", 0.3),
    ("CC(C)n1c(/C=C/[C@@H](O)C[C@@H](O)CC(=O)O)c(-c2ccc(F)cc2)c2ccccc21 [fluvastatin]", "=", 1),
    ("CC[C@@H]1C(=O)N(C)c2cnc(Nc3ccc(C(=O)NC4CCN(C)CC4)cc3OC)nc2N1C1CCCC1", "≤", 0.3),
    ("Cc1cccc(-c2nn(C(=S)Nc3ccccc3)cc2-c2ccnc3ccccc23)n1", "=", 9),
    ("O=C(NCc1cccc(O)c1)Nc1nc(-c2ccncc2)cs1 [RKI 1447 dihydrochloride]", "≤", 0.3),
    ("CC1(C)O[C@@H]2C[C@H]3[C@@H]4C[C@H](F)C5=CC(=O)C=C[C@]5(C)[C@@]4(F)[C@@H](O)C[C@]3(C)[C@]2(C(=O)CO)O1 [fluocinolone acetonide]", "≤", 0.3),
    ("NC1(C(=O)N[C@@H](CCO)c2ccc(Cl)cc2)CCN(c2ncnc3[nH]ccc23)CC1", "=", 1),
    ("Nc1ncnc2[nH]nc(Nc3ccc(F)cc3)c12", "=", 9),
    ("CN1CCN(c2ccc(OC(F)(F)F)c(Nc3ncc4c(n3)-c3c(c(C(N)=O)nn3CCO)CC4)c2)CC1", "≤", 0.3),
    ("CC(=O)Nc1ccc(NC(=S)NC(=O)c2ccc(C(C)(C)C)cc2)cc1 [Tenovin-1]", "≤", 0.3),
    ("CN[C@H]1CC[C@@H](c2ccc(Cl)c(Cl)c2)c2ccccc21 [sertraline]", "=", 3),
    ("NCC(=O)Nc1ccc(-n2nc(C(F)(F)F)cc2-c2ccc3c(ccc4ccccc43)c2)cc1", "≤", 0.3),
    ("CN1CCc2cccc3c2[C@H]1Cc1ccc(O)c(O)c1-3 [r(-)-apomorphine]", "=", 9),
    ("CON(C)C(=O)N1N=C(c2cc(F)ccc2F)S[C@@]1(CCCN)c1ccccc1 [ARRY 520 trifluoroacetate]", "≤", 0.3),
    ("COc1cc(C)c(Sc2cnc(NC(=O)c3ccc(CNC(C)C(C)(C)C)cc3)s2)cc1C(=O)N1CCN(C(C)=O)CC1 (stereo not given)", "=", 3),
    ("N#Cc1cccc(-c2c[nH]c3ncnc(N4CCOCC4)c23)c1", "=", 9),
    ("CC(C)(C)Nc1nc(Nc2ccc(C(N)=O)cc2)cc(N)c1C#N", "=", 3),
    ("CNC(=O)c1ccc(C)c(-n2c(C)cc(OCc3ccc(F)cc3F)c(Br)c2=O)c1", "=", 1),
    ("CC(C)(C)c1cnc(CSc2cnc(NC(=O)C3CCNCC3)s2)o1", "≤", 0.3),
    ("CCN(CC)CCCC(C)Nc1ccnc2cc(Cl)ccc12 (stereo not given) [chloroquine]", "=", 3),
    ("CCC1=C[C@@H]2CN(C1)Cc1c([nH]c3ccccc13)[C@@](C(=O)OC)(c1cc3c(cc1OC)N(C)[C@H]1[C@@](O)(C(=O)OC)[C@H](OC(C)=O)[C@]4(CC)C=CCN5CC[C@]31[C@@H]54)C2 [vinorelbine]", "≤", 0.3),
    ("O=C1NCCCc2c1oc1ccc(O)cc21", "=", 9),
]
